- Test system: Stenotrophomonas maltophilia
- assay_remarks: Antibacterial activity against Stenotrophomonas maltophilia ATCC 13637 assessed as reduction in microbial growth after 20 hrs by microdilution method
- Assay type: functional
- study_conditions: ATCC 13637, 20 h
readout_type: MIC (µg/mL)

> print(dat)
                                   compound   unit  quantitative.readout
1  O=C(N[C@H](CO)[C@H](O)c1ccc([N+](=O)[O-])cc1)C(Cl)Cl  µg/mL                   3.3
2  CCCCCC1=C/C(=C\c2[nH]c(-c3ccc[nH]3)cc2OC)N=C1C  µg/mL                   1.7

I: COc1cc(-c2ccc[nH]2)[nH]c1/C=C1/C=C(CCCCC(C)C)C(C)=N1
II: COc1cc(-c2ccc[nH]2)[nH]c1/C=C1\N=C(C)C2=C1C(C)CCC2 (centres undefined)
I'm curious whether I or II has the smaller MIC number. Which is it? Your answer should be the label of the entry you select.
II

====

- System: Listeria monocytogenes
- assay_remarks: Antibacterial activity against Listeria monocytogenes MB677 assessed as reduction in microbial growth after 20 hrs by microdilution method
- Assay type: functional
- study_conditions: MB677, 20 h
readout_type: MIC (µg/mL)

The following compounds have reported results that may help.
> print(dat)
                                   compound             test.system  readout.type   unit  quantitative.readout
1  CCCCCC1=C/C(=C\c2[nH]c(-c3ccc[nH]3)cc2OC)N=C1C  Listeria monocytogenes           MIC  µg/mL                   1.7
2  COc1cc(-c2ccc[nH]2)[nH]c1/C=C1\N=C(C)C2=C1C(C)CCC2 (centres undefined)  Listeria monocytogenes           MIC  µg/mL                     4

1: COc1cc(-c2ccc[nH]2)[nH]c1/C=C1/C=C(CCCCC(C)C)C(C)=N1
2: CC1(C)S[C@@H]2[C@H](NC(=O)[C@H](N)c3ccccc3)C(=O)N2[C@H]1C(=O)O
I'm curious whether 1 or 2 has the smaller MIC number. Which is it? Your answer should be the label of the entry you select.
2
